- SYSTEM: TNFRSF9 (CD137) (human)
- Sequence (chain, as listed by the source): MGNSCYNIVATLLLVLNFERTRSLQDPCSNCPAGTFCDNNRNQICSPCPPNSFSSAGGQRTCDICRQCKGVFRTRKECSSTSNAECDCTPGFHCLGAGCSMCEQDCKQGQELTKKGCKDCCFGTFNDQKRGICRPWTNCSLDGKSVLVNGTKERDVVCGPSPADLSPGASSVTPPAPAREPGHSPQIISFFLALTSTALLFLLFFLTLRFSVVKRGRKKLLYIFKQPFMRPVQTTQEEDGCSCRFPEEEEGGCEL
- ASSAY OVERVIEW: ELISA
OBSERVED PROPERTY: EC50 (ng/mL)
Report the figure in ng/mL without appending any unit label.

See these solved cases before continuing.
4C2-Candi4 (antibody, V domains shown) VH: EVQLEESGGGVVQPGGSLKLSCTVSGFSLGTFPIGWVRQAPGKGLEWVGIFNTDGSAAYAASVKGRFTVSKNSTKNTVYLHMNSLKTEDTAVYFCARINADYSGWYFGIWGQGTLVTVSS VL: DIQMTQSPSSLSVSVGGRVTITCQASQSIYSYLAWYQQKPGKAPKLLIYEASKTPSGVPSRFNGNGSGTEYTLTISSLQPEDSATYYCQKGYSVSNVAFGGGTEVEIK | 2.46
4C2-Candi3 (antibody, V domains shown) VH: EVQLEESGGGLVQPGGSLALSCTVSGFSLGTFPIGWVRQAPGKGLEWVGIFNTDGSAAYAASVKGRFTVSRDSSKNTVYLHMNSLKTEDTAVYFCARINADYSGWYFGIWGQGTLVTVSS VL: DIQMTQSPSSLSASVGGRVTITCQASQSIYSYLAWYQQKPGKAPKLLIYEASKTPSGVPSRFNGNGSGTDFTLTISSLQPEDSATYYCQKGYSVSNVAFGGGTEVEIK | 100
4C2-WTH (antibody, V domains shown) VH: QSVEESGGRLVTPGTPLTLTCTVSGFSLGTFPIGWVRQAPGSGLEWIGIFNTDGSAAYASWARGRFTVFKNSTTVDLKMTSPTTEDTATYFCARINADYSGWYFGIWGPGTLVTVSS VL: EMTQTPASVEVAVGGTVTIKCQASQSIYSYLAWYQQKPGQPPKPLIYEASKTPSGVPSRFKGSGSGTEYTLTISGVQCEDAATYYCQKGYSVSNVAFGGGTEVVVK | 3.8

We now examine a further binder.
The binder 4C2-Candi2 (antibody, V domains shown) VH: EVQLEESGGGLVQPGMSLRLSCTVSGFSLGTFPIGWVRQAPGKGLEWVGIFNTDGSAAYAASVKGRFNVSKNSTKNTVYLHMNSLKTEDTAVYFCARINADYSGWYFGIWGQGTLVTVSS VL: AQQMTQSPSSLSVSVGGRVTITCQASQSIYSYLAWYQQKPGKAPKLLIYEASKTPSGVPSRFNGNGSGTEYTLTISSLQPEDSATYYCQKGYSVSNVAFGGGTEVEIK showed EC50 equal to 2.38
